Method description: In vivo murine PK
Conditions used: mouse, plasma, iv; CD1 mice, I.V., 10 mg/kg, mean
Measurement kind: clearance (L/h/kg)
Provide the reading as a plain figure in L/h/kg.

Consider the compound Nc1n[nH]c2ccc(-c3ccnc4[nH]c(-c5ccnc(OCc6ccccc6)c5)cc34)cc12 [Compound 6g [SU1349]] and give its measured clearance.
1

---

Method description: In vivo murine PK
Conditions used: mouse, plasma, ip; CD1 mice, I.P., 10 mg/kg, mean; read-out: Terminal t1/2 (converted)
Measurement kind: half-life (h)
Provide the reading as a plain figure in h.

Consider the compound Nc1n[nH]c2ccc(-c3ccnc4[nH]c(-c5ccnc(OCc6ccccc6)c5)cc34)cc12 [Compound 6g [SU1349]] and give its measured half-life.
3.02

---

Quick list: solubility per entry.
Method description: Turbidimetric solubility
Format: physicochemical
Conditions used: pH 7.4, aqueous buffer, kinetic from dmso stock, 0.01 M phosphate-buffered saline pH7.4

| Molecule | solubility |
| --- | --- |
| Nc1n[nH]c2ccc(-c3ccnc4[nH]c(-c5ccnc(SCc6ccccc6)c5)cc34)cc12 | 2 µM |

Consider the molecule Nc1n[nH]c2ccc(-c3ccnc4[nH]c(-c5cc(OCc6ccccc6)ccn5)cc34)cc12 and give its measured solubility.
2 µM

Consider the molecule Nc1n[nH]c2ccc(-c3ccnc4[nH]c(-c5cncc(OCc6ccccc6)c5)cc34)cc12 and give its measured solubility.
6.5 µM

Consider the molecule Nc1n[nH]c2ccc(-c3ccnc4[nH]c(-c5cccc(OCc6ccccc6)c5)cc34)cc12 [Compound 5r [SU1261]] and give its measured solubility.
< 1 µM

Consider the molecule Nc1n[nH]c2ccc(-c3ccnc4[nH]c(-c5cc(F)nc(CNc6ccccc6)c5)cc34)cc12 and give its measured solubility.
3.75 µM

---

System under test: IKKα (Homo sapiens, UniProt O15111)
Sequence (O15111 whole entry): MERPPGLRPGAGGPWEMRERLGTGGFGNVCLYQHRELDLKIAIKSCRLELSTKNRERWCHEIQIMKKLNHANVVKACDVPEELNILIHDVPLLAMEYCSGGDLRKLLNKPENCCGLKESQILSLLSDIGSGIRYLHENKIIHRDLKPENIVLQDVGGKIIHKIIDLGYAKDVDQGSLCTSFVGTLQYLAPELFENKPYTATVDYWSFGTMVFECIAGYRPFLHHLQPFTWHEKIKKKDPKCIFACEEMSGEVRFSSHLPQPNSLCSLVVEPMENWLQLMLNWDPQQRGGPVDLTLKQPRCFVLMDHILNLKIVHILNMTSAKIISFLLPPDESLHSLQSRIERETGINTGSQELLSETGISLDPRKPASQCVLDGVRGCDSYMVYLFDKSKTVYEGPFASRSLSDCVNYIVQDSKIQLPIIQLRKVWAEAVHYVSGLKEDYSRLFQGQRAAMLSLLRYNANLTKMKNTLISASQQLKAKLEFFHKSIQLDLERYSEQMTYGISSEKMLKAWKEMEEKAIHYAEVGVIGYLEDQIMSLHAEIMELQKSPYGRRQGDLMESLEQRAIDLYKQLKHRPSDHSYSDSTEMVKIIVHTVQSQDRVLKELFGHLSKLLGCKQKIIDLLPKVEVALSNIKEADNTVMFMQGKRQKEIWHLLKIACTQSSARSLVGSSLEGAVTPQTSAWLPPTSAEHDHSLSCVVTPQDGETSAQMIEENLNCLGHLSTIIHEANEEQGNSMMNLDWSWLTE
Method description: DELFIA kinase assay, IKKα
Conditions used: DELFIA kinase assay
Measurement kind: pKi
Scale: negative log10 of molar concentration, which is what pKi denotes.

Some compounds with known pKi results, for comparison:
| Compound | Experimental result |
| --- | --- |
| Nc1n[nH]c2ccc(-c3ccnc4[nH]c(-c5cccc(C(=O)O)c5)cc34)cc12 | 8.10 |
| Nc1n[nH]c2ccc(-c3ccnc4[nH]c(-c5ccccc5OCc5ccccc5)cc34)cc12 | 7.24 |
| Nc1n[nH]c2ccc(-c3ccnc4[nH]c(-c5ccnc(OCc6ccccc6)c5)cc34)cc12 [Compound 6g [SU1349]] | 7.80 |
| Nc1n[nH]c2ccc(-c3ccnc4[nH]c(-c5cc(OCc6ccccc6)ccn5)cc34)cc12 | 7.60 |
| Nc1n[nH]c2ccc(-c3ccnc4[nH]c(-c5ccnc(OCCc6ccccc6)c5)cc34)cc12 | 7.38 |

Consider the compound CCOc1ccccc1-c1cc2c(-c3ccc4[nH]nc(N)c4c3)ccnc2[nH]1 and give its measured pKi.
8.10

---

Method description: Turbidimetric solubility
Assay type: physicochemical
Conditions used: pH 7.4, aqueous buffer, kinetic from dmso stock, 0.01 M phosphate-buffered saline pH7.4
Measurement kind: solubility

| Compound | solubility |
| --- | --- |
| Nc1n[nH]c2ccc(-c3ccnc4[nH]c(-c5ccnc(OCc6ccccc6)c5)cc34)cc12 [Compound 6g [SU1349]] | 20 µM |
| COCCOCc1cc(OCc2ccccc2)cc(-c2cc3c(-c4ccc5[nH]nc(N)c5c4)ccnc3[nH]2)c1 | 3.75 µM |
| Nc1n[nH]c2ccc(-c3ccnc4[nH]c(-c5ccnc(OCc6ccncc6)c5)cc34)cc12 | > 100 µM |

Please turn your attention to the following entry.
Consider the compound COCCNc1cc(OCc2ccccc2)cc(-c2cc3c(-c4ccc5[nH]nc(N)c5c4)ccnc3[nH]2)c1 and give its measured solubility.
2 µM
